System: SF-268
protocol_text: Cytotoxicity against human SF268 cells at 4 ug/ml after 48 hrs by SRB assay
Assay type: functional
condition_label: SF-268, 48 h
measured_endpoint: growth, % of control at 4 µg/mL (%)
Write the number in % without appending the unit.

[
  {
    "compound": "CSCC[C@H](N)C(=O)NCCNc1ccc(NCCNC(=O)[C@@H](N)CCSC)c2c1C(=O)c1c(O)ccc(O)c1C2=O",
    "display_unit": "%",
    "growth, % of control at 4 µg/mL": 1
  },
  {
    "compound": "CC(C)(C)OC(=O)NCCCC[C@H](NC(=O)OC(C)(C)C)C(=O)NCCNc1ccc(NCCNC(=O)[C@H](CCCCNC(=O)OC(C)(C)C)NC(=O)OC(C)(C)C)c2c1C(=O)c1c(O)ccc(O)c1C2=O",
    "display_unit": "%",
    "growth, % of control at 4 µg/mL": 65
  },
  {
    "compound": "CSCC[C@H](NC(=O)OC(C)(C)C)C(=O)NCCNc1ccc(NCCNC(=O)[C@H](CCSC)NC(=O)OC(C)(C)C)c2c1C(=O)c1c(O)ccc(O)c1C2=O",
    "display_unit": "%",
    "growth, % of control at 4 µg/mL": 98
  },
  {
    "compound": "CC(C)(C)OC(=O)NCCCC[C@@H](N)C(=O)NCCNc1ccc(NCCNC(=O)[C@H](N)CCCCNC(=O)OC(C)(C)C)c2c1C(=O)c1ccccc1C2=O",
    "display_unit": "%",
    "growth, % of control at 4 µg/mL": 97
  },
  {
    "compound": "NCCCC[C@@H](N)C(=O)NCCNc1ccc(NCCNC(=O)[C@H](N)CCCCN)c2c1C(=O)c1ccccc1C2=O",
    "display_unit": "%",
    "growth, % of control at 4 µg/mL": 82
  }
]

The recorded growth, % of control at 4 µg/mL with SF-268 for `CSCC[C@@H](NC(=O)OC(C)(C)C)C(=O)NCCNc1ccc(NCCNC(=O)[C@@H](CCSC)NC(=O)OC(C)(C)C)c2c1C(=O)c1ccccc1C2=O` was 107

The recorded growth, % of control at 4 µg/mL with SF-268 for `CC(C)(C)Oc1ccc(C[C@H](N)C(=O)NCCNc2ccc(NCCNC(=O)[C@@H](N)Cc3ccc(OC(C)(C)C)cc3)c3c2C(=O)c2ccccc2C3=O)cc1` was 82

The recorded growth, % of control at 4 µg/mL with SF-268 for O=C1c2ccccc2C(=O)c2c(NCCNCCO)ccc(NCCNCCO)c21 [AMETANTRONE] was 6

The recorded growth, % of control at 4 µg/mL with SF-268 for `CSCC[C@@H](NC(=O)OC(C)(C)C)C(=O)NCCNc1ccc(NCCNC(=O)[C@@H](CCSC)NC(=O)OC(C)(C)C)c2c1C(=O)c1c(O)ccc(O)c1C2=O` was 106

The recorded growth, % of control at 4 µg/mL with SF-268 for `N[C@@H](Cc1ccc(O)cc1)C(=O)NCCNc1ccc(NCCNC(=O)[C@@H](N)Cc2ccc(O)cc2)c2c1C(=O)c1ccccc1C2=O` was 53

The recorded growth, % of control at 4 µg/mL with SF-268 for `CSCC[C@H](N)C(=O)NCCNc1ccc(NCCNC(=O)[C@@H](N)CCSC)c2c1C(=O)c1ccccc1C2=O` was 53

The recorded growth, % of control at 4 µg/mL with SF-268 for `CSCC[C@@H](N)C(=O)NCCNc1ccc(NCCNC(=O)[C@H](N)CCSC)c2c1C(=O)c1c(O)ccc(O)c1C2=O` was 100

The recorded growth, % of control at 4 µg/mL with SF-268 for `NCCCC[C@H](N)C(=O)NCCNc1ccc(NCCNC(=O)[C@@H](N)CCCCN)c2c1C(=O)c1c(O)ccc(O)c1C2=O` was 42

The recorded growth, % of control at 4 µg/mL with SF-268 for `NCCCC[C@H](N)C(=O)NCCNc1ccc(NCCNC(=O)[C@@H](N)CCCCN)c2c1C(=O)c1ccccc1C2=O` was 79

The recorded growth, % of control at 4 µg/mL with SF-268 for `CC(C)(C)OC[C@H](NC(=O)OCC1c2ccccc2-c2ccccc21)C(=O)NCCNc1ccc(NCCNC(=O)[C@H](COC(C)(C)C)NC(=O)OCC2c3ccccc3-c3ccccc32)c2c1C(=O)c1ccccc1C2=O` was 70
